# Assay remarks: Inhibition of HCV GT1b NS5B polymerase
# Parameters: species or system Hepacivirus hominis
pIC50: −log10 of the molar value.
Is pIC50 at least 6? Then 1. If not, 0.

>  <Molecule>
C[C@H]1CC[C@H](c2ccccc2-c2cc(-c3ccccc3)sc2C(=O)O)CC1

>  <Group>
1

$$$$
>  <Molecule>
Cc1ccc(-c2nocc2-c2cc(-c3ccccc3)sc2C(=O)O)cc1

>  <Group>
0

$$$$
>  <Molecule>
CC1CCC(=Cc2ncccc2-c2cc(-c3ccccc3)sc2C(=O)O)CC1 (stereo not given)

>  <Group>
1

$$$$
>  <Molecule>
O=C(O)c1sc(-c2ccccc2)cc1-c1cnnn1C1CCCCC1

>  <Group>
1

$$$$
>  <Molecule>
O=C(O)c1sc(-c2ccccc2)cc1-c1cc(=O)[nH]nc1-c1ccccc1

>  <Group>
0

$$$$

====

pIC50: recorded values
# Assay remarks: Inhibition of HCV GT1b NS5B polymerase
# Set-up: species or system Hepacivirus hominis
pIC50: −log10 of the molar value.
Metric name: pIC50

>  <Smiles code>
C[C@H]1CC[C@H](n2nncc2-c2cc(-c3ccccc3)sc2C(=O)O)CC1

>  <Measured result>
7.00

$$$$
>  <Smiles code>
Cc1ccc(-n2nncc2-c2cc(-c3ccccc3)sc2C(=O)O)cc1

>  <Measured result>
6.96

$$$$
>  <Smiles code>
C[C@H]1CC[C@H](c2cc(-c3cc(-c4ccccc4)sc3C(=O)O)on2)CC1

>  <Measured result>
4.49

$$$$
>  <Smiles code>
O=C(O)c1sc(-c2ccccc2)cc1-c1conc1-c1ccccc1

>  <Measured result>
4.54

$$$$
>  <Smiles code>
O=C(O)c1sc(-c2ccccc2)cc1-c1conc1-c1ccc(F)cc1

>  <Measured result>
5.24

$$$$
